B1: TPR 5TU (parent)
chain: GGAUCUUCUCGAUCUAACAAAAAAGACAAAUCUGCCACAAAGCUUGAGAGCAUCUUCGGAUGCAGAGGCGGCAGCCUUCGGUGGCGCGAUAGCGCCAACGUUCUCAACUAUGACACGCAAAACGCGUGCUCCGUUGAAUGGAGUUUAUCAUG

# Variants of: B1
# experiment-notes: polymerase ribozyme fitness, log enrichment relative to wild type (log ratio); higher = more active; in vitro selection for triplet polymerase activity
Variants at the floor of the assay were thinned out.
measured-parameter: polymerase ribozyme fitness (log ratio)

{"mutation-notation": "U44A G58U G70C C76A A91G A115C", "relation": "≤", "reported-value": -4.2}
{"mutation-notation": "A39G G59A C96G U146C", "relation": "=", "reported-value": -3.67}
{"mutation-notation": "C63U A122C", "relation": "=", "reported-value": -0.464}
{"mutation-notation": "A41U A66C G88A A113C G143A U146C", "relation": "≤", "reported-value": -4.2}
{"mutation-notation": "G48A C108U", "relation": "≤", "reported-value": -4.2}
{"mutation-notation": "G59C G94C A119C U146G", "relation": "=", "reported-value": -1.61}
{"mutation-notation": "A49U C54G U55A G59A A60G U90G A106U G124C", "relation": "≤", "reported-value": -4.2}
{"mutation-notation": "C93A G117U", "relation": "=", "reported-value": -1.92}
{"mutation-notation": "C18G A24U U33A G124A U135A", "relation": "≤", "reported-value": -4.2}
